Taken from PubChem BioAssay.

Experiment: antimalarial activity against Dd2 strain (AID 2302);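 further: 0% = DMSO untreated growth and 100% = chloroquine plus artemisinin killed control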
Conditions: P. falciparum Dd2 in RBCs, LDH growth readout, 72 h; at 2 µM; hits give high values
Quick list: growth inhibition per entry.
Your answer should be a plain number; it is taken to be in %.

CCC(C)c1ccc(NC(=O)C(C)c2ccc([N+](=O)[O-])cc2)cc1 (stereo unspecified) : 100

Turning to the following compound.
Enquiry: I would be grateful if you could share the reported growth inhibition for O=C(NC1CC1)c1ccc(Nc2nccc(-c3c(-c4cccc(NC(=O)c5c(F)cccc5F)c4)nn4ccccc34)n2)cc1 .
Return: 96

----------
Test: antimalarial activity against Dd2 strain (AID 2302);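 further: 0% = DMSO untreated growth and 100% = chloroquine plus artemisinin killed control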
Settings: P. falciparum Dd2 in RBCs, LDH growth readout, 72 h; at 2 µM; hits give high values
measuredProperty: growth inhibition (%)
Your answer should be a plain number; it is taken to be in %.

Reference set (3 entries):
COc1ccc(OC)c(CC2c3ccc(Br)c(O)c3CCN2C)c1 (configuration not stated) : 97
OC1(c2ccc(Br)cc2)CCN(C2CCN(Cc3ccccc3)CC2)CC1 : 18
COc1ccc(-c2ccc(NC(=O)c3ccc(C#N)cc3)cc2)cc1CN1CCCC1 : 51

Enquiry: I would be grateful if you could share the reported growth inhibition for CS(=O)(=O)NCCCNCc1ccc(-c2ccc(-c3nc4ccc(F)cc4[nH]3)cc2)cc1 .
Return: 97

Enquiry: I would be grateful if you could share the reported growth inhibition for CCCCN(CCCC)Cc1cc(Nc2ccnc3cc(Cl)ccc23)ccc1O .
Return: 87

Enquiry: I would be grateful if you could share the reported growth inhibition for CCn1c(-c2nonc2N)nc2c(-c3cc4ccccc4s3)ncc(C(=O)N3CCC(N)C3)c21 (configuration not stated) .
Return: 66

Enquiry: I would be grateful if you could share the reported growth inhibition for O=C(Nc1ccc(N2CCC(Nc3ccccn3)CC2)cc1)c1cnc(Cl)c(Cl)c1 .
Return: 1

Enquiry: I would be grateful if you could share the reported growth inhibition for Cc1ccc(-c2cc(C(=O)Nc3ccc(S(=O)(=O)N4CCOCC4)cc3)[nH]n2)c(O)c1C .
Return: 45

Enquiry: I would be grateful if you could share the reported growth inhibition for CC(C)c1ccc(N(CC(=O)N/N=C/c2ccc(C(F)(F)F)cc2)S(=O)(=O)c2ccc(C(F)(F)F)cc2)cc1 .
Return: 44

Enquiry: I would be grateful if you could share the reported growth inhibition for CCn1c(-c2nonc2N)nc2c(-c3cccc(Cl)c3)ncc(OCCCNCc3cnc(C)nc3N)c21 .
Return: 48

Enquiry: I would be grateful if you could share the reported growth inhibition for N#Cc1ccc2c(c1)CCN(CCC1CCC(NC(=O)/C=C/c3cnc4ccccc4c3)CC1)CC2 (configuration not stated) .
Return: 21

Enquiry: I would be grateful if you could share the reported growth inhibition for O=C(Nc1cccc(CN2CCCN(Cc3ccc4c(c3)OCO4)CC2)c1)c1ccc2ccccc2c1 .
Return: 14

Enquiry: I would be grateful if you could share the reported growth inhibition for CN(C)C(=O)CC(=O)NCc1cccc(Cl)c1 .
Return: 3

Enquiry: I would be grateful if you could share the reported growth inhibition for O=C(NC1CCC(N2CCC(c3ccccc3C(F)(F)F)CC2)CC1)c1cc2ccccc2[nH]1 (configuration not stated) .
Return: 98

Enquiry: I would be grateful if you could share the reported growth inhibition for CCn1c(-c2nonc2N)nc2c(-c3cccc(NC(=O)Nc4ccc(C(F)(F)F)cc4)c3)ncc(OCCCN)c21 .
Return: 63

Enquiry: I would be grateful if you could share the reported growth inhibition for CCn1ccc2c(N3CCCCS3(=O)=O)cc(C(=O)N[C@@H](Cc3ccccc3)[C@H](O)CNC(C)(C)c3cccc(C(F)(F)F)c3)cc21 .
Return: 98

Enquiry: I would be grateful if you could share the reported growth inhibition for CCc1cc2c(cc1CC)CC(NC[C@@H](O)c1ccc(O)c3[nH]c(=O)ccc13)C2 .
Return: 9
